- Test system: Sprague-Dawley rats
- protocol summary: Pharmacological effect and adverse reactions under the equivalent dose (2ED50), Group C compounds
- Format: in vivo
- condition label: equivalent dose (2ED50), number of rats of n = 8
Adverse reaction: Tremor listing for selected molecules.
experimental endpoint: Adverse reaction: Tremor

| molecule | experimental endpoint | result |
| --- | --- | --- |
| COCC(=O)c1cncn1[C@H](C)c1ccccc1 | Adverse reaction: Tremor | 1 |
| CCC(CC)OCC(=O)c1c(F)ncn1[C@H](C)c1ccccc1 | Adverse reaction: Tremor | 0 |
| COCC(=O)c1c(F)ncn1[C@H](C)c1ccccc1 | Adverse reaction: Tremor | 1 |
| C[C@H](c1ccccc1)n1cnc(F)c1C(=O)COCC1CCC1 | Adverse reaction: Tremor | 0 |
| C[C@H](c1ccccc1)n1cnc(F)c1C(=O)COCC1CC1 | Adverse reaction: Tremor | 1 |
| C[C@H](c1ccccc1)n1cncc1C(=O)COC(C)(C)C | Adverse reaction: Tremor | 0 |
| CC#CCOCC(=O)c1c(F)ncn1[C@H](C)c1ccccc1 | Adverse reaction: Tremor | 0 |
| CC#CCOCC(=O)c1cc(F)nn1[C@H](C)c1ccccc1 | Adverse reaction: Tremor | 1 |
| COC(=O)C1(OC(=O)c2cncn2[C@H](C)c2ccccc2)CC1 [CPMM, cyclopropyl methoxycarbonyl metamidate, reference compound] | Adverse reaction: Tremor | 5 |

----------
- Tested on: SD rats
- condition label: continuous infusion 2 x MIR 1 hour; rats affected/rats
experimental endpoint: Types and incidence of adverse reactions: Red urine

| molecule | tested on | result |
| --- | --- | --- |
| COC(OC)(OC)C(=O)c1cncn1[C@H](C)c1ccccc1 [Compound D77] | SD rats | Red urine(6/6), Tongue |
| COC(OC)C(=O)c1cc(F)nn1[C@H](C)c1ccccc1 [Compound D25] | SD rats | 6/6 |
| CCOC(=O)C(=O)c1cncn1[C@H](C)c1ccccc1 [Compound D81] | SD rats | 6/6 |
| COC(OC)(OC)C(=O)c1c(F)cnn1[C@H](C)c1ccccc1 [Compound D29] | SD rats | Red urine(6/6), Tongue |
| COC(OC)(OC)C(=O)c1cc(F)nn1[C@H](C)c1ccccc1 [Compound D17] | SD rats | 6/6 |
| COC(OC)(OC)C(=O)c1ccnn1[C@H](C)c1ccccc1 [Compound D1] | SD rats | 6/6 |
| COC(=O)C1(OC(=O)c2cncn2[C@H](C)c2ccccc2)CC1 [CPMM, cyclopropyl methoxycarbonyl metamidate, reference compound] | SD rats | 6/6 |

----------
- System: H295R cell line
- protocol summary: Adrenocortical function in vitro test: secretion of cortisol and corticosterone, Group A compounds
- Assay type: cell-based
- condition label: H295 cells
experimental endpoint: Corticosterone as an indicator to determine the presence of inhibition

| compound | numeric result |
| --- | --- |
| CCOC(=O)c1cncn1C(C)c1ccccc1 (stereo not drawn) [Etomidate, reference compound] | 2 |
| COC1CC(OC(=O)c2c(F)cnn2C(C)c2ccccc2)C1 (stereo not drawn) | 0 |
| CC(=O)C1(OC(=O)c2ccnn2[C@H](C)c2ccccc2)COC1 | 0 |
| COC(=O)C1=C(OC(=O)c2ccnn2[C@H](C)c2ccccc2)CCC1 | 0 |
| C=CC1(OC(=O)c2cc(F)nn2[C@H](C)c2ccccc2)COC1 | 0 |
| C[C@H](c1ccccc1)n1nccc1C(=O)OC1(C)COC1 | 0 |
